Settings: cynomolgus monkey, in vivo, sc, 40 mg/kg
Would you mind labelling by ALT? At or over 50 IU/L is Y, under is N.

Completed entries (count: 3):
Q) Could you please find out whether GATTTAATGGTTGCAA (cEt gapmer chemistry, further chemistry not given here) [ISIS 586124] has ALT that meets 50 IU/L or exceeds it?
A) Y

Q) Could you please find out whether TGATTTAATGGTTGCA [ISIS 569216] (cEt/MOE gapmer chemistry, further chemistry not given here) has ALT that meets 50 IU/L or exceeds it?
A) Y

Q) Could you please find out whether TGATTTAATGGTTGCA [ISIS 569221] (cEt/MOE gapmer chemistry, further chemistry not given here) has ALT that meets 50 IU/L or exceeds it?
A) N

***
Q) Could you please find out whether ISIS 584149: antisense compound targeted to human AR (GTCAATATCAAAGCAC; 3-10-3 (S)-cEt gapmer, further chemistry not given here) has ALT that meets 50 IU/L or exceeds it?
A) Y

Q) Could you please find out whether TGATTTAATGGTTGCA [ISIS 569213] (cEt/MOE gapmer chemistry, further chemistry not given here) has ALT that meets 50 IU/L or exceeds it?
A) N
